ASSAYED SYSTEM: GST-Bc1-2 (Homo sapiens)
Sequence (P10415 whole entry): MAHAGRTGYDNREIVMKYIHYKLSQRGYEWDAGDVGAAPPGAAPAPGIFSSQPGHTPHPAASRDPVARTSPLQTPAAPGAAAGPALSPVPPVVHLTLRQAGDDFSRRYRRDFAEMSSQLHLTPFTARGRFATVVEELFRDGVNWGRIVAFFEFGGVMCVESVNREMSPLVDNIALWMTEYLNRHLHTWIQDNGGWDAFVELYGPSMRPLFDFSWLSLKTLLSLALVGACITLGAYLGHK
TEST NAME: Time Resolved-Fluorescence Resonance Energy Transfer (TR-FRET) Bcl-2 binding assay with F-Bak peptide probe
DETAILS: GST-Bcl-2 1 nM, F-Bak probe 100 nM, Tb-anti-GST 1 nM; '<' = below limit of detection; read-out: TR-FRET Bcl-2 Binding Ki
pKi: −log10 of the molar value.
Recorded measurements of pKi, one per entry
MEASURED METRIC: pKi

# MOLECULE, MEASURED METRIC, CENSOR SYMBOL, RESULT
data = [
    ("CC1(C)CCC(CN2CCN(c3ccc(C(=O)NS(=O)(=O)c4ccc(NC5CCN(CC(F)F)CC5)c([N+](=O)[O-])c4)c(Oc4cnc5[nH]ccc5c4)c3)CC2)=C(c2ccc(Cl)cc2)C1 [Example 97]", "pKi", "=", 10.77),
    ("CC1(C)CCC(CN2CCN(c3ccc(C(=O)NS(=O)(=O)c4ccc(OCC5CCOCC5)c(C(N)=O)c4)c(Oc4cnc5[nH]ccc5c4)c3)CC2)=C(c2ccc(Cl)cc2)C1 [Example 38]", "pKi", "=", 9.52),
    ("CC1(C)CCC(CN2CCN(c3ccc(C(=O)NS(=O)(=O)c4cnc(OCCN5CCOCC5)c(C#N)c4)c(Oc4cnc5[nH]ccc5c4)c3)CC2)=C(c2ccc(Cl)cc2)C1 [Example 57]", "pKi", "=", 10.20),
    ("CC1(C)CCC(CN2CCN(c3ccc(C(=O)NS(=O)(=O)c4ccc(OCC5CCOCC5)c([N+](=O)[O-])c4)c(Oc4cnc5[nH]ccc5c4)c3)CC2)=C(c2ccc(Cl)cc2)C1 [Example 24]", "pKi", ">", 11.00),
    ("CC1(C)CCC(CN2CCN(c3ccc(C(=O)NS(=O)(=O)c4cnc(OC[C@@H]5CCN(C(CF)CF)C5)c(Cl)c4)c(Oc4cnc5[nH]ccc5c4)c3)CC2)=C(c2ccc(Cl)cc2)C1 [Example 280]", "pKi", "=", 10.15),
    ("CC1(C)CCC(CN2CCN(c3ccc(C(=O)NS(=O)(=O)c4ccc(OCC5(F)CCN(C6CCOCC6)CC5)c([N+](=O)[O-])c4)c(Oc4cnc5[nH]ccc5c4)c3)CC2)=C(c2ccc(Cl)cc2)C1 [Example 192]", "pKi", ">", 11.00),
    ("CC1(C)CCC(CN2CCN(c3ccc(C(=O)NS(=O)(=O)c4ccc(OCC5(F)CCN(C6CC6)CC5)c([N+](=O)[O-])c4)c(Oc4cnc5[nH]ccc5c4)c3)CC2)=C(c2ccc(Cl)cc2)C1 [Example 173]", "pKi", ">", 11.00),
    ("CC1(C)CCC(CN2CCN(c3ccc(C(=O)NS(=O)(=O)c4ccc(NCC5CCOCC5)c([N+](=O)[O-])c4)c(Oc4ccc5[nH]ccc5c4)c3)CC2)=C(c2ccc(Cl)cc2)C1 [Example 18]", "pKi", "=", 10.77),
    ("CC1(C)CCC(CN2CCN(c3ccc(C(=O)NS(=O)(=O)c4ccc(NCC5CCC(F)(F)CC5)c([N+](=O)[O-])c4)c(Oc4cnc5[nH]ccc5c4)c3)CC2)=C(c2ccc(Cl)cc2)C1 [Example 239]", "pKi", "=", 10.59),
    ("CC1(C)CCC(CN2CCN(c3ccc(C(=O)NS(=O)(=O)c4cc(Cl)c(NCC5CCOCC5)c(C#N)c4)c(Oc4cnc5[nH]ccc5c4)c3)CC2)=C(c2ccc(Cl)cc2)C1 [Example 52]", "pKi", "=", 9.94),
]
